System: P-Akt (S473)
Assay Method Text: Cell based AlphaLISA assay, inhibition of P-Akt (S473) (mTORC2 substrate phosphorylation) in MDA-MB-468 cells
Setup Conditions: Homo sapiens, MDA-MB-468, 4 h, AlphaLISA, two to four hours at 37° C., read-out: pIC50 for Inhibition of mTORC1 and mTORC2 Substrate Phosphorylation, p-AKT 1/2/3 -(S473) (converted)
Please go through the items and note down their IC50.

// query Reported IC50, molecule CO[C@H]1C[C@@H]2CC[C@@H](C)[C@@](O)(O2)C(=O)C(=O)N2CCCC[C@H]2C(=O)O[C@H]([C@H](C)C[C@@H]2CC[C@H](n3cc(-c4cnc(N5CCN(c6ncc(C(=O)NCCOCCOCCC(=O)NCCCCn7nc(-c8ccc9oc(N)nc9c8)c8c(N)ncnc87)cn6)CC5)nc4)nn3)[C@H](OC)C2)CC(=O)[C@H](C)/C=C(\C)[C@@H](O)[C@@H](OC)C(=O)[C@H](C)C[C@H](C)/C=C/C=C/C=C/1C : ____
// result 31.6 to 1000 nM

// query Reported IC50, molecule COC(=O)N[C@H]1C[C@@H]2CC[C@@H](C)[C@@](O)(O2)C(=O)C(=O)N2CCCC[C@H]2C(=O)O[C@H]([C@H](C)C[C@@H]2CC[C@@H](OCCCCc3cn(CCOCCOCCOCCOCCOCCOCCOCCOCCC(=O)NCCCCn4nc(-c5cc6cc(O)ccc6[nH]5)c5c(N)ncnc54)nn3)[C@H](OC)C2)CC(=O)[C@H](C)/C=C(\C)[C@@H](O)[C@@H](OC)C(=O)[C@H](C)C[C@H](C)/C=C/C=C/C=C/1C : ____
// result > 1000 nM

// query Reported IC50, molecule CO[C@H]1C[C@@H]2CC[C@@H](C)[C@@](O)(O2)C(=O)C(=O)N2CCCC[C@H]2C(=O)O[C@H]([C@H](C)C[C@@H]2CC[C@H](n3cc(-c4cccc(C(=O)NCCOCCOCCOCCOCCC(=O)NCCOCCOCCOCCOCCC(=O)NCCCCn5nc(-c6ccc7oc(N)nc7c6)c6c(N)ncnc65)c4)nn3)[C@H](OC)C2)CC(=O)[C@H](C)/C=C(\C)[C@@H](O)[C@@H](OC)C(=O)[C@H](C)C[C@H](C)/C=C/C=C/C=C/1C : ____
// result 3.16 to 31.6 nM
